All values here come from PubChem BioAssay AID330.

System: P388 leukemia ip, CD2F1 mice, survival T/C
Experiment: NCI In Vivo Anticancer Drug Screen. Data for tumor model P388 Leukemia (intraperitoneal) in CD2F1 (CDF1) mice
Settings: endpoint: median survival time; dose: 200.0 mg/kg/injection; schedule: Q01DX001 (ip); vehicle: saline with Tween-80; higher = longer survival
Toxic doses and inconclusive results are not listed.
EXPERIMENTAL_ENDPOINT: T/C

• COC1=C(OC)C(=O)C2=C(OCCCO2)C1=O = 105 % of control
• O=[N+]([O-])c1cnc2n(O)cccc1-2 = 87 % of control
• CC(=O)N(C)OS(=O)(=O)c1ccc(C)cc1 = 105 % of control
• CCCCC(CC)OC(=O)c1cccc(C(=O)O)c1 (stereo unspecified) = 97 % of control

## Task What measured T/C goes with CC12OCCC1C(c1ccccc1[N+](=O)[O-])Nc1ccccc12 (stereo unspecified) ?
## Result 97 % of control

## Task Same thing, different compound: CCn1c(C)cc(=NC(=O)c2ccccc2O)n1-c1ccccc1
## Result 106 % of control

###

System: P388 leukemia ip, CD2F1 mice, survival T/C
Assay: NCI In Vivo Anticancer Drug Screen. Data for tumor model P388 Leukemia (intraperitoneal) in CD2F1 (CDF1) mice
Conditions: endpoint: median survival time; dose: 100.0 mg/kg/injection; schedule: Q01DX009 (ip); vehicle: Klucel (hydroxypropylcellulose) (HPC); higher = longer survival
Inconclusive results and toxic doses are left out.
EXPERIMENTAL_ENDPOINT: T/C

Some entries whose results are on file:
- CN1C2(c3ccccc3)OC(=O)C1(c1ccccc1)C1C(=O)C3C4c5ccccc5C(c5ccccc54)C3C(=O)C12 (stereo not given): 100 % of control
- Cc1ccc(S(=O)(=O)OCC2(COCc3ccccc3)CCCCC2=O)cc1 (stereo not given): 92 % of control
- O=c1cc(-c2ccccc2)nc(Sc2ccc([N+](=O)[O-])cc2[N+](=O)[O-])[nH]1: 98 % of control
- Fc1c(F)c(-c2c(F)c(F)c(OCC3CO3)c(F)c2F)c(F)c(F)c1OCC1CO1 (stereo not given): 103 % of control
- c1ccc(-c2cc(CNc3nc4ccccc4s3)on2)cc1: 99 % of control

## Task What measured T/C goes with CC(C)OCCCN(Cn1c(=S)sc2ccccc21)Cn1c(=S)sc2ccccc21 ?
## Result 89 % of control

## Task Same thing, different molecule: O=C1c2ccccc2-c2n[nH]c3cccc1c23
## Result 102 % of control

## Task Same thing, different molecule: CC(=O)[O][Ge]([c]1ccccc1)([c]1ccccc1)[c]1ccccc1
## Result 107 % of control

## Task Same thing, different molecule: C[Si](C)(C)N[Si](C)(C)C
## Result 102 % of control

## Task Same thing, different molecule: Cc1ccc(C(=O)CC2(O)C(=O)Nc3ccccc32)cc1 (stereo not given)
## Result 92 % of control

###

Entries and their T/C
System: P388 leukemia ip, CD2F1 mice, survival T/C
Assay: NCI In Vivo Anticancer Drug Screen. Data for tumor model P388 Leukemia (intraperitoneal) in CD2F1 (CDF1) mice
Conditions: endpoint: median survival time; dose: 12.5 mg/kg/injection; schedule: Q01DX005 (ip); vehicle: Klucel (hydroxypropylcellulose) (HPC); higher = longer survival
Inconclusive results and toxic doses are left out.

## Task What measured T/C goes with CCC[CH2][Sn]1([CH2]CCC)[O]c2ccccc2[O]1 ?
## Result 107 % of control

## Task Same thing, different molecule: CN(CCCCC1CCCN(C(=O)c2ccccc2)C1)C(=O)c1ccccc1 (centres undefined)
## Result 96 % of control

## Task Same thing, different molecule: [Cl][Zn][Cl].c1ccc2[nH]cnc2c1.c1ccc2[nH]cnc2c1
## Result 100 % of control

## Task Same thing, different molecule: COc1cc([C@@H]2c3cc4c(c(OC)c3C[C@H]3COC(=O)[C@@H]32)OCO4)cc(OC)c1OC
## Result 100 % of control
